molecular target: Nucleic Acid; test: Binding affinity to Bacillus subtilis antiterminator AM1A RNA model after 70 mins by FRET assay; type: nucleic-acid assay
measured.property: Kd (µM)
// note: answer is a bare numeric in µM

Query: Supply recorded Kd for O=C(Cc1ccccc1)OC[C@H]1OC(=O)N[C@H]1CN1CCN(c2ccccc2)CC1 (racemic) here.
Response: 5.1

###

target: Nucleic Acid; assay: Binding affinity to Bacillus subtilis antiterminator AM1A RNA model after 130 mins by FRET assay; type: nucleic-acid assay
// reported Kd for each item listed

CC(=O)c1ccc(NC(=O)OC[C@@H]2OC(=O)N[C@H]2CN2CCN(c3ccccc3)CC2)cc1 :: 1.6 µM

Next up:
Query: Supply recorded Kd for O=C(Cc1ccccc1)OC[C@H]1OC(=O)N[C@@H]1CN1CCN(c2ccccc2)CC1 here.
Response: 12 µM
